system: genotype 1b (Con-1) HCV replicon; assay: HCV Replicon Luciferase Assay; assay type: cell-based; settings: Hepatitis C virus, 72 h; Huh-7 genotype 1b replicon, Renilla luciferase, 3 days incubation; read-out: EC50 (uM) 1b
readout.name: log10(EC50) (log10 of the value in µM)
Note: values are log10 of EC50 expressed in µM.

Give reported log10(EC50) for CNC(=O)c1c(-c2ccc(F)cc2)oc2cc(N(CCF)S(C)(=O)=O)c(-c3cccc(C(=O)N4CCC(O)C4)c3)cc12 (stereo not drawn) (genotype 1b (Con-1) HCV replicon)
0.21

State log10(EC50) (genotype 1b (Con-1) HCV replicon) of `CNC(=O)c1c(-c2ccc(F)cc2)oc2cc(N(CCF)S(C)(=O)=O)c(-c3cccc(C(=O)N4CCC[C@@H]4CO)c3)cc12` .
-0.86

Look up genotype 1b (Con-1) HCV replicon data: log10(EC50) of `C#CC(CC)(CC)NC(=O)c1cccc(-c2cc3c(C(=O)NC)c(-c4ccc(F)cc4)oc3cc2N(CCCF)S(C)(=O)=O)c1` , then report it.
-2.25

Name the value of log10(EC50) reported for `CNC(=O)c1c(-c2ccc(F)cc2)oc2cc(NCCCF)c(-c3cccc(C(=O)NC(CF)(CF)CF)c3)cc12` when tested on genotype 1b (Con-1) HCV replicon.
-2.03

Output reported log10(EC50) of the compound `CNC(=O)c1c(-c2ccc(F)cc2)oc2cc(N(CCF)S(C)(=O)=O)c(-c3cccc(C(=O)N4CC(NC(=O)OC(C)(C)C)C4)c3)cc12` on genotype 1b (Con-1) HCV replicon.
-0.86

System genotype 1b (Con-1) HCV replicon. Read-out log10(EC50). Item `CC[C@@H](NC(=O)c1cccc(-c2cc3c(C(=O)NC)c(-c4ccc(F)cc4)oc3cc2N(CCF)S(C)(=O)=O)c1)C1CC1` . Report value.
-2.24

Provide genotype 1b (Con-1) HCV replicon log10(EC50) reading for `CNC(=O)c1c(-c2ccc(F)cc2)oc2cc(N(CCF)S(C)(=O)=O)c(-c3cccc(C(=O)N4CCN(c5ccc(Cl)cc5)CC4)c3)cc12` .
-2.03

Enter log10(EC50) (test system genotype 1b (Con-1) HCV replicon) for `CNC(=O)c1c(-c2ccc(F)cc2)oc2cc(N(CCC(F)(F)F)S(C)(=O)=O)c(-c3cccc(C(=O)NCC(F)(F)C(F)(F)F)c3)cc12`
-2.12

Enter log10(EC50) (test system genotype 1b (Con-1) HCV replicon) for `C#CC(C)(C)NC(=O)c1cccc(-c2cc3c(C(=O)NC)c(-c4ccc(F)cc4)oc3cc2N(CCCF)S(C)(=O)=O)c1`
-2.10

Jot down log10(EC50) (genotype 1b (Con-1) HCV replicon) of `CNC(=O)c1c(-c2ccc(F)cc2)oc2cc(N(CC3CC3)S(C)(=O)=O)c(-c3cccc(C(=O)NC(C)(C)C#N)c3)cc12` .
-1.83

# lookup: genotype 1b (Con-1) HCV replicon log10(EC50), key = CNC(=O)c1c(-c2ccc(F)cc2)oc2cc(N(CCCF)S(C)(=O)=O)c(-c3cccc(C(=O)NC(C)C(F)(F)F)c3)cc12 (stereo not drawn)
-2.03

Please indicate recorded log10(EC50) of `CNC(=O)c1c(-c2ccc(F)cc2)oc2cc(N(CCCF)S(C)(=O)=O)c(-c3cccc(C(=O)NCC(C)C)c3)cc12` measured with genotype 1b (Con-1) HCV replicon.
-2.12

Provide log10(EC50), tested on genotype 1b (Con-1) HCV replicon, for `CNC(=O)c1c(-c2ccc(F)cc2)oc2cc(N(CCCF)S(C)(=O)=O)c(-c3cccc(C(=O)NCC(C)(F)F)c3)cc12` .
-2.01

With genotype 1b (Con-1) HCV replicon as the test system, provide measured log10(EC50) for this compound: `CNC(=O)c1c(-c2ccc(F)cc2)oc2cc(N(CCF)S(C)(=O)=O)c(-c3cccc(C(=O)NC(C)(C)C#N)c3)cc12`
-2.30

Look up and report measured log10(EC50) (genotype 1b (Con-1) HCV replicon) for the following compound: `CNC(=O)c1c(-c2ccc(F)cc2)oc2cc(N(CCF)S(C)(=O)=O)c(-c3cccc(C(=O)N4[C@@H](COC)CC[C@@H]4COC)c3)cc12`
-0.48

Look up and report measured log10(EC50) (genotype 1b (Con-1) HCV replicon) for the following compound: `CNC(=O)c1c(-c2ccc(F)cc2)oc2cc(N(CCF)S(C)(=O)=O)c(-c3cccc(C(=O)NCC(F)(F)C(F)(F)F)c3)cc12`
-2.49

For genotype 1b (Con-1) HCV replicon, give the measured log10(EC50) of the entry CNC(=O)c1c(-c2ccc(F)cc2)oc2cc(N(CCF)S(C)(=O)=O)c(-c3cccc(C(=O)N4CCC(c5cccc(Cl)c5)C4)c3)cc12 (stereo not drawn)
-1.38

Output reported log10(EC50) of the compound CNC(=O)c1c(-c2ccc(F)cc2)oc2cc(N(CCF)S(C)(=O)=O)c(-c3cccc(C(=O)N4CCC(c5ccc(F)cc5)C4)c3)cc12 (stereo not drawn) on genotype 1b (Con-1) HCV replicon.
-1.93

Write down the reported log10(EC50) (system: genotype 1b (Con-1) HCV replicon) of `CNC(=O)c1c(-c2ccc(F)cc2)oc2cc(N(C(F)F)S(C)(=O)=O)c(-c3cccc(C(=O)NC(C)(C)C(F)(F)F)c3)cc12`
-2.02

GET log10(EC50) where system = genotype 1b (Con-1) HCV replicon and item = `CNC(=O)c1c(-c2ccc(F)cc2)oc2cc(N(CCCF)S(C)(=O)=O)c(-c3cccc(C(=O)NC4(C)CCC4)c3)cc12`
-2.11

Using genotype 1b (Con-1) HCV replicon as the test system, report measured log10(EC50) of `CNC(=O)c1c(-c2ccc(F)cc2)oc2cc(N(CCF)S(C)(=O)=O)c(-c3cccc(C(=O)N4CCC(C)(C)C4)c3)cc12` .
-2.20

Provide log10(EC50), system genotype 1b (Con-1) HCV replicon, entry `CNC(=O)c1c(-c2ccc(F)cc2)oc2cc(N(CCCF)S(C)(=O)=O)c(-c3cccc(C(=O)NCC(F)(F)C(F)(F)F)c3)cc12`
-2.28

Give log10(EC50); test system genotype 1b (Con-1) HCV replicon; compound `CNC(=O)c1c(-c2ccc(F)cc2)oc2cc(N(CCF)S(C)(=O)=O)c(-c3cccc(C(=O)NC(C4CC4)C4CC4)c3)cc12`
-2.25
